Target: 274
Experiment: SPR; liposome-bound MPER
Where no end group is shown, it is not given here. The star is where a group is joined. Palmitoyl = CCCCCCCCCCCCCCCC(=O)*
value.kind: Kd (nM)

{"binder": "Palmitoyl-DLLELDKWASLWNWFNITNWLWYIK [N-terminally palmitoylated MPER peptide]", "reported.measurement": 63}
